target: T1, Human VSIG4-L-Fc (human); assay: blocking ELISA, biotin-C3b on coated hVSIG4-L-Fc
T1 construct: also called hVSIG4-L-Fc; hVSIG4-L
T1 sequence (chain, as listed by the source limits assumed): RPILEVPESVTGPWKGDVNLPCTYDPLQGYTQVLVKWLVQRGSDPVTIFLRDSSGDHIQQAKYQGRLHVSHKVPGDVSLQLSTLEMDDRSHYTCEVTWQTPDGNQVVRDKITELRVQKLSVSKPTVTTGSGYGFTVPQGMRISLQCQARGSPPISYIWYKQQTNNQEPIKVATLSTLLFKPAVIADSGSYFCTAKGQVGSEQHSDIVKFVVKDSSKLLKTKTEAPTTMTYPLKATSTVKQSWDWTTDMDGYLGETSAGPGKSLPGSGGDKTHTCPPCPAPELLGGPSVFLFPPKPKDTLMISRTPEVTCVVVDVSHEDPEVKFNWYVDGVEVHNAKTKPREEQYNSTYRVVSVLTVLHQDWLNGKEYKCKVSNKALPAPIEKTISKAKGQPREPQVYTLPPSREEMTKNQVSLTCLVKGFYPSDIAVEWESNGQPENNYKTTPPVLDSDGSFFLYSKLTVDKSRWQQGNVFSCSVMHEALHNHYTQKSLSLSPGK
Exam item: assign true (1) to entries whose Percent Blocking C3b is below 70% and false (0) to entries at or above 70%. Note that a value of exactly 70% receives false (0).

BINDER	GROUP
16E10 mouse Fab (periplasmic extract) (Fab, V domains shown, mouse Fab with C-terminal His6-c-myc tag) VH: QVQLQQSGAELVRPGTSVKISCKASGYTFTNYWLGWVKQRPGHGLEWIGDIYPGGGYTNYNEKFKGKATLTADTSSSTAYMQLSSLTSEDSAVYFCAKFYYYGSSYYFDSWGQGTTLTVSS VL: DIVLTQSPSSLSVSAGEKVTLSCKSSQSLLNSGNQENYLAWYQQKPGQPPKLLIYGASTRESGVPDRFTGSGSGTDFTLTISSVQAEDLAVYYCQNDHSYPLTFGAGTKLELK	true (1)
13H11 mouse Fab (periplasmic extract) (Fab, V domains shown, mouse Fab with C-terminal His6-c-myc tag) VH: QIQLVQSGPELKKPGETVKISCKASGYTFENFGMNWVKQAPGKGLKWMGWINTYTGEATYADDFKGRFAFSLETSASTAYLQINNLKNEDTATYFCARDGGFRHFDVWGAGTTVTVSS VL: ETTVTQSPASLSVATGEKVTIRCITSTDIDDDMNWYQQKPGEPPKLLISEGNTLRPGVPSRFSSSGYGTDFVFTIENMLSEDVADYYCLQSDNLPLTFGAGTKLELK	true (1)
14C05 mouse Fab (periplasmic extract) (Fab, V domains shown, mouse Fab with C-terminal His6-c-myc tag) VH: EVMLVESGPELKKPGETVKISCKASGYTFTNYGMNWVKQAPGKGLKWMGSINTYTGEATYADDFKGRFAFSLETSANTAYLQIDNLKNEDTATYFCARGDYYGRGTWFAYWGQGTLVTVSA VL: ETTVTQSHKFMSTSVGDRVSITCKASQDVSTAVAWYQQKPGQSPKLLIYSASYRYPGVPDRFTGSGSGTDFTFTISSVQAEDLAVYYCQQDYSSPWTFGGGTKLEIK	false (0)
12A08 mouse Fab (periplasmic extract) (Fab, V domains shown, mouse Fab with C-terminal His6-c-myc tag) VH: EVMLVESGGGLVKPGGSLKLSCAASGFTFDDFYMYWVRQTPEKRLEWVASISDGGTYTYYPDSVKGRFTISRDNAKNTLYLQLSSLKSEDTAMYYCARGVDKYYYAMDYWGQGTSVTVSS VL: QILLTQSPAIMSASPGEKVTITCSASSSVSYMHWFQQKPGTSPKLWIYSTSNLASGVPARFSGSGSGTSYSLTISRMEAEDAATYYCQQRSSYPLTFGAGTKLELK	true (1)
12A12 mouse Fab (periplasmic extract) (Fab, V domains shown, mouse Fab with C-terminal His6-c-myc tag) VH: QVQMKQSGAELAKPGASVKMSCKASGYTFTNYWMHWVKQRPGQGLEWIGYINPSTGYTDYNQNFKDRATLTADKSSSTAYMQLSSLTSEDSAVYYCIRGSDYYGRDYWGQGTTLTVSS VL: DIQMTQTTSSLSASLGDRVTISCRASQDISNYLNWYQQKPDGTLKLLIYYTSRLHSGVPSRFSGSGSGTDYSLTISNLEQEDIATYFCRQGNTLPWTFGGGTKLEIK	false (0)
15C03 mouse Fab (periplasmic extract) (Fab, V domains shown, mouse Fab with C-terminal His6-c-myc tag) VH: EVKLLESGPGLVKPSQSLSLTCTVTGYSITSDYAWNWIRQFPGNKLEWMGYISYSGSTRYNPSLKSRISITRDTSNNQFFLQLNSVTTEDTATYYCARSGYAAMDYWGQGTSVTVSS VL: ENVLTQSPAIMSASPGEKVTMTCRASSSVSSSYLHWYQQKSGASPKLWIYSTSNLASGVPARFSGSGSGTSYSLTISSVEAEDAATYYCQQYSGYPLTFGSGTKLEIK	true (1)
